Measured values drawn from patent US20240336595A1 for this set.

test system: Aiolos; test: IMiD activity: Aiolos degradation in PBMCs by flow cytometry; type: cell-based; conditions: compound concentration degrading 50% of Aiolos; human PBMCs, 24 hours
outcome-measure: DC50 (nM)
Give the value in nM but do not write nM after it.

Enquiry: Find the measured DC50 of CN1CCN([C@@H]2CCCN(c3cnc(C(N)=O)c(Nc4ccc(N5CCC6(CCCN(c7ccc8c(c7)C(=O)N(C7CCC(=O)NC7=O)C8=O)C6)CC5)cc4)n3)C2)C1=O (stereo partly drawn) with Aiolos as test system.
Return: 2650

Enquiry: Find the measured DC50 of CN1CCN([C@@H]2CCCN(c3cnc(C(N)=O)c(Nc4ccc(C5CCN(CC6CCN(c7ccc(C(=O)N[C@H]8CCC(=O)NC8=O)nc7)CC6)CC5)cc4)n3)C2)C1=O with Aiolos as test system.
Return: 631

Enquiry: Find the measured DC50 of NC(=O)c1ncc(N2CCCCC2)nc1Nc1ccc2c(c1)CCN(CC1CCN(c3ccc(C(=O)NC4CCC(=O)NC4=O)nc3)CC1)C2 (racemic) with Aiolos as test system.
Return: 344

Enquiry: Find the measured DC50 of CN1CCN([C@@H]2CCCN(c3cnc(C(N)=O)c(Nc4ccc(C5CCN(C[C@H]6CC[C@@H](Nc7cccc8c7C(=O)N([C@@H]7CCC(=O)NC7=O)C8=O)CC6)CC5)cc4)n3)C2)C1=O (racemic) with Aiolos as test system.
Return: 96.6

Enquiry: Find the measured DC50 of CN1CCN([C@@H]2CCCN(c3cnc(C(N)=O)c(Nc4ccc(C5CCN(CC6CCN(c7ccc(C(=O)NC8CCC(=O)NC8=O)cc7)CC6)CC5)cc4)n3)C2)C1=O (mixture of isomers) with Aiolos as test system.
Return: 468

Enquiry: Find the measured DC50 of CN1CCN([C@@H]2CCCN(c3cnc(C(N)=O)c(Nc4ccc(C5CCN(CC6CCN(c7ccc(C(=O)N[C@@H]8CCC(=O)NC8=O)nc7)CC6)CC5)cc4)n3)C2)C1=O with Aiolos as test system.
Return: 596

Enquiry: Find the measured DC50 of CN1CCN([C@@H]2CCCN(c3cnc(C(N)=O)c(Nc4ccc(C5CCN(CC6CCN(c7ccc(OC8CCC(=O)NC8=O)cn7)CC6)CC5)cc4)n3)C2)C1=O (stereo partly drawn) with Aiolos as test system.
Return: 2.89

Enquiry: Find the measured DC50 of CN1CCN([C@H]2CCCN(c3cnc(C(N)=O)c(Nc4ccc(C5CCN(CC6CCN(c7ccc(C(=O)NC8CCC(=O)NC8=O)nc7)CC6)CC5)cc4)n3)C2)C1=O (stereo partly drawn) with Aiolos as test system.
Return: 345

Enquiry: Find the measured DC50 of NC(=O)c1ncc(N2CCCCC2)nc1Nc1ccc(N2CCC3(CCN(Cc4ccc5c(c4)C(=O)N(C4CCC(=O)NC4=O)C5=O)CC3)CC2)cc1 (stereo not drawn) with Aiolos as test system.
Return: 37.6
